# credit: PubChem BioAssay (NCATS)

# Tested on: GB4
# experiment: qHTS profiling for inhibitors of Plasmodium falciparum proliferation (AID 504749); further: nearly all actives have a fitted effect of over 60% in size
# condition.description: P. falciparum in erythrocytes, SYBR Green DNA, 72 h; series mostly up to 28.7 µM
Inconclusive results are not listed. Activity calls are given as the source filed them. The call rests on the fitted dose curve; in most records, active means well fitted inhibition curve with a large enough effect; inconclusive means small, poorly fitted or top-dose-only effect; inactive means flat fitted curve, though single readings scatter.
Parameter call: string, one of 1.0 = active, 0.0 = inactive

Here's what some known entries look like.
C[C@@](Cc1ccc(O)c(O)c1)(NN)C(=O)O :: 0.0
CC12CCC(C[N+](C)(CCC[N+](C)(C)C)C1)C2(C)C (stereo unspecified) :: 0.0
NCCO/C=C/[C@H](N)C(=O)O :: 0.0
O=C(O)/C=C/c1ccccc1 :: 0.0
CC/C=C\C/C=C\C/C=C\CCCCCCCC(=O)O :: 0.0
Cc1ccc(S(=O)(=O)NCl)cc1 :: 0.0
N=C(N)n1cccn1 :: 0.0
C=Cc1ccc(S(=O)(=O)O)cc1 :: 0.0
C[C@]12CCC(=O)C[C@@H]1CC[C@@H]1[C@@H]2CC[C@]2(C)C=CC[C@@H]12 :: 0.0
C=CC(=O)O :: 0.0

For this compound, state the assay outcome: O=C1N=C2SCCN2C(=O)C1Cc1ccc(Cl)cc1 (stereo unspecified)
0.0

Proceed to CC(=O)N[C@@H]1C(O[C@H]2O[C@H](C(=O)O)C(O)[C@H](O)[C@H]2O)[C@H](O)[C@@H](CO)O[C@H]1O[C@@H]1C(C(=O)O)O[C@@H](O[C@H]2[C@H](O)[C@@H](CO)OC(O)[C@@H]2NC(C)=O)[C@H](O)[C@H]1O (stereo partly specified)
0.0

Proceed to CC(=O)[C@H]1CC[C@H]2[C@@H]3C=CC4=CC(=O)CC[C@@]4(C)[C@H]3CC[C@]12C
0.0

* * *

# Test system: CP203
# experiment: qHTS profiling for inhibitors of Plasmodium falciparum proliferation (AID 504749); further: nearly all actives have a fitted effect of over 60% in size
# condition.description: P. falciparum in erythrocytes, SYBR Green DNA, 72 h; series mostly up to 28.7 µM
Inconclusive results are not listed. Activity calls are given as the source filed them. Calls follow the shape of the dose curve; as a rule, active = well fitted inhibition curve with a large enough effect; inconclusive = small, poorly fitted or top-dose-only effect; inactive = flat fitted curve, though single readings scatter.
measurement.label: outcome

C[C@H](CCC(=O)O)[C@H]1CC[C@H]2[C@@H]3CC[C@@H]4C[C@H](O)CC[C@]4(C)[C@H]3C[C@H](O)[C@]12C :: inactive
C[C@@](Cc1ccc(O)c(O)c1)(NN)C(=O)O :: inactive
CC(C)[C@H](N)C(=O)OCC(CO)OCn1cnc2c(=O)[nH]c(N)nc21 (some centres not stated) :: inactive
C[C@H](O)CN(C)C :: inactive
CC1(O)CCC(C(C)(C)O)CC1 (configuration not stated) :: inactive

Please give outcome, item by item, for the list that follows.
1. CC[C@H]1OC(=O)[C@H](C)[C@@H](O[C@H]2C[C@@](C)(OC)[C@@H](O)[C@H](C)O2)C(C)[C@@H](O[C@@H]2O[C@H](C)C[C@H](N(C)C)[C@@H]2O)[C@](C)(OC)C[C@@H](C)C(=O)[C@H](C)[C@@H](O)[C@]1(C)O (some centres not stated)
2. CC(C)CCCCCCc1ccc(O)cc1

1: inactive; 2: inactive

* * *

# Test system: CP266
# experiment: qHTS profiling for inhibitors of Plasmodium falciparum proliferation (AID 504749); further: nearly all actives have a fitted effect of over 60% in size
# condition.description: P. falciparum in erythrocytes, SYBR Green DNA, 72 h; series mostly up to 28.7 µM
Records with an inconclusive call do not appear. Calls of active or inactive are those of the source. Calls come from the whole dose curve; as a rule, active = well fitted inhibition curve with a large enough effect; inconclusive = small, poorly fitted or top-dose-only effect; inactive = flat fitted curve, though single readings scatter.
Parameter call: string, one of t (active), f (inactive)

Here's what some known entries look like.
CC1=CC(=C(c2ccc(N)cc2)c2ccc(N)cc2)C=CC1=N :: t
CN(CCO)CC(O)Cn1cnc2c1c(=O)n(C)c(=O)n2C (stereo not given) (tested in a mixture with another compound) :: f
O=C(CCCCCCCCCCCCC1CCCC1)Nc1ccc(S(=O)(=O)c2ccc(NC(=O)CCCCCCCCCCCCC3CCCC3)cc2)cc1 :: f
NCC(O)CC(=O)O (stereo not given) :: f
CCCC(=O)O :: f
O=C(O)/C=C/C(=O)Nc1ccc(S(=O)(=O)Nc2nccs2)cc1 :: f
c1ccc(-n2cnnn2)cc1 :: f
CCc1ccc(S(=O)(=O)O)cc1 :: f

For this compound, state the assay outcome: CCCCCCCCCCCCCCCCOCCOCCOCCOCCOCCOCCOCCOCCOCCOCCOCCOCCOCCOCCOCCOCCOCCOCCOCCOCCO
f

Proceed to O=C(O[C@H]1CN2CCC1CC2)N1CCc2ccccc2[C@@H]1c1ccccc1
f

Proceed to CCCCCCCCCCCCCCCCCC(=O)OCC(C)O (stereo not given)
f

Proceed to CC1CC(OC(=O)C(O)c2ccccc2)CC(C)(C)C1 (stereo not given)
f

Proceed to S=C1SCN(Cc2ccccc2)CN1Cc1ccccc1
f

Proceed to COc1ccc2c(=O)c(C)c(-c3ccccc3)oc2c1CN(C)C
f

Proceed to C[C@H](N)C(=O)N[C@@H](C)P(=O)(O)O
f

Proceed to CCN(CC)C(=O)c1cccnc1
f

Proceed to CC(C)O
f

Proceed to COc1ccc2c(c1)OC(C)(C)C(c1ccccc1)C2c1ccc(OCCN2CCCC2)cc1 (stereo not given)
t

Proceed to FC(F)(F)C(F)(F)C(F)(F)C(F)(F)C(F)(F)F
f

Proceed to CCCC(CCC)C(=O)OC1C[C@H]2CC[C@@H](C1)[N+]2(C)C (stereo not given in full)
f

Proceed to COc1ccccc1N1CCN(CCCC(=O)c2ccc(F)cc2)CC1
f

Proceed to CCOC(C)OCC
f
